Target: NET (Rattus norvegicus)
Construct: from tissue; host or cells: rat brain
Sequence (Q63380 1-617): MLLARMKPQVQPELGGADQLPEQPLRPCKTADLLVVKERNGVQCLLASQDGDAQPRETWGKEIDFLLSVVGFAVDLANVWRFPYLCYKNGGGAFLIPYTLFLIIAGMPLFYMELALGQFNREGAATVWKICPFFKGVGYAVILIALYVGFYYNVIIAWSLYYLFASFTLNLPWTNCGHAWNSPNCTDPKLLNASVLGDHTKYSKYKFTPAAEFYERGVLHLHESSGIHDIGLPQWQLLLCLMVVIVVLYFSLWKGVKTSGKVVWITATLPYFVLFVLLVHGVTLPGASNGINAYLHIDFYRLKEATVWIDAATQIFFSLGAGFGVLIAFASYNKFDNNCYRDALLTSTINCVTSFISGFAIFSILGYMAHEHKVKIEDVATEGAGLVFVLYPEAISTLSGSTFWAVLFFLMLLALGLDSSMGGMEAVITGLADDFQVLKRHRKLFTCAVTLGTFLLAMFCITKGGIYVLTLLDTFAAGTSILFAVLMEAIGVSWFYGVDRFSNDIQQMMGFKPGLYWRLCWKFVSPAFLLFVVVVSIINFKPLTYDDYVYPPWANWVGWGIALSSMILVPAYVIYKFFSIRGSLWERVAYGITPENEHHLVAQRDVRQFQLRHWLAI
Experiment: NET uptake inhibition, [3H]DA, rat brain
Format: biochemical
Settings: number in parentheses within cell
VALUE KIND: Ki (nM)
Hi! Could you send only the number? It should be in nM, unit omitted.

See these solved cases before continuing.
{"CHEM SMILES": "Oc1cc(O)cc(CN[C@@H]2CO[C@H](C(c3ccccc3)c3ccccc3)C[C@H]2O)c1", "UNIT ABBREV": "nM", "Ki": 152}
{"CHEM SMILES": "O[C@@H]1C[C@@H](C(c2ccccc2)c2ccccc2)OC[C@H]1NCc1ccc2cc[nH]c2c1", "UNIT ABBREV": "nM", "Ki": 10}
{"CHEM SMILES": "O[C@@H]1C[C@@H](C(c2ccc(F)cc2)c2ccc(F)cc2)OC[C@H]1NCc1ccc2c(c1)CCO2", "UNIT ABBREV": "nM", "Ki": 25.8}

Request: What value of Ki on NET (Rattus norvegicus) does "O[C@@H]1C[C@@H](C(c2ccccc2)c2ccccc2)OC[C@H]1NCc1ccc2occc2c1" have?
Response: 33.6

Request: What value of Ki on NET (Rattus norvegicus) does "CN(C)c1ccc(CN[C@@H]2CO[C@H](C(c3ccc(F)cc3)c3ccc(F)cc3)C[C@H]2O)cc1" have?
Response: 56.6

Request: What value of Ki on NET (Rattus norvegicus) does "COc1ccc(CN[C@@H]2CO[C@H](C(c3ccc(F)cc3)c3ccc(F)cc3)C[C@H]2O)cn1" have?
Response: 28.4

Request: What value of Ki on NET (Rattus norvegicus) does "Cn1c(=O)oc2cc(CN[C@@H]3CO[C@H](C(c4ccc(F)cc4)c4ccc(F)cc4)C[C@H]3O)ccc21" have?
Response: 25.8

Request: What value of Ki on NET (Rattus norvegicus) does "c1ccc(C(c2ccccc2)[C@@H]2CC[C@H](NCc3ccc4cc[nH]c4c3)CO2)cc1" have?
Response: 20.8

Request: What value of Ki on NET (Rattus norvegicus) does "O[C@@H]1C[C@@H](C(c2ccc(F)cc2)c2ccc(F)cc2)OC[C@H]1NCc1ccc2occc2c1" have?
Response: 26.5

Request: What value of Ki on NET (Rattus norvegicus) does "COc1ccc(CN[C@@H]2CO[C@H](C(c3ccc(F)cc3)c3ccc(F)cc3)C[C@H]2O)cc1" have?
Response: 13.2

Request: What value of Ki on NET (Rattus norvegicus) does "c1ccc(C(c2ccccc2)[C@@H]2CC[C@H](NCc3ccc4occc4c3)CO2)cc1" have?
Response: 25.2

Request: What value of Ki on NET (Rattus norvegicus) does "COc1cccc(CN[C@@H]2CO[C@H](C(c3ccccc3)c3ccccc3)C[C@H]2O)c1" have?
Response: 5.85
